# target or test system: Beta-lactamase (Pseudomonas aeruginosa (strain ATCC 15692 / PAO1 / 1C / PRS 101 / LMG12228), UniProt P24735)
# Sequence (P24735 whole entry): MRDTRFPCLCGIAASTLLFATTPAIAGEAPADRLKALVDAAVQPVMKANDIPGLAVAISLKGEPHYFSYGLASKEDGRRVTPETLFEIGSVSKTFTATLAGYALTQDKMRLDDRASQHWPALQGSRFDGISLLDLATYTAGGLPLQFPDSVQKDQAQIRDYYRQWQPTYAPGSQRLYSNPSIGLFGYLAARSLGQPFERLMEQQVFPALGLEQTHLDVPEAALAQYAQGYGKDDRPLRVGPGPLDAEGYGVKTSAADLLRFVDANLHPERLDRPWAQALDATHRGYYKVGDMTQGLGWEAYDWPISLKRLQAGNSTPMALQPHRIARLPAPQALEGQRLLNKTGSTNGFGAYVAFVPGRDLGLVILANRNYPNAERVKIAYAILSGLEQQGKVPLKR
# protocol notes: Inhibition of Pseudomonas aeruginosa 18SH Beta-lactamase.
property: pIC50
Recall that pIC50 is obtained by taking minus log10 of the concentration measured in molar.

molecule=O=C(CNc1ccc(O)cc1)N1CC[C@@H]2[C@H]1C(=O)N2S(=O)(=O)[O-].[Na+] property=pIC50 endpoint_result=7.60

Lab note: NC(=O)Nc1ccc(NC(=O)N2CC[C@@H]3[C@H]2C(=O)N3S(=O)(=O)[O-])cc1.[Na+] gave pIC50 of 7.32

Per the record, CC(C)(C)OC(=O)N1CCC[C@@H]2[C@H]1C(=O)N2S(=O)(=O)[O-].[Na+] has pIC50 of 3.84

The molecule listed as NC(=O)c1cccc(NC(=O)N2CC[C@@H]3[C@H]2C(=O)N3S(=O)(=O)[O-])c1.[Na+] shows pIC50 equal to 7.62

Value of pIC50 reported for the molecule Cn1nnnc1SCC(=O)N1CC[C@@H]2[C@H]1C(=O)N2S(=O)(=O)[O-].[Na+] is 6.70

Reported pIC50 for Cn1ccnc1SCC(=O)N1CC[C@@H]2[C@H]1C(=O)N2S(=O)(=O)[O-].[Na+] was 6.21

###

# target or test system: Beta-lactamase (Pseudomonas aeruginosa (strain ATCC 15692 / PAO1 / 1C / PRS 101 / LMG12228), UniProt P24735)
# protocol notes: Inhibition of Pseudomonas aeruginosa 18SH Beta-lactamase.
pIC50 by entry:
Note: pIC50 values are expressed as the negative base-10 logarithm of concentration in M.

Examples from the recorded data:
compound=Cn1nnnc1S[C@@H]1CN(C(=O)OCc2ccccc2)[C@@H]2C(=O)N(S(=O)(=O)[O-])[C@@H]21.[Na+] property=pIC50 endpoint_result=6.21
compound=[NH-]C(=O)c1ccc[n+](CC(=O)N2CC[C@@H]3[C@H]2C(=O)N3S(=O)(=O)[O-])c1.[Na+] property=pIC50 endpoint_result=7.57
compound=NC(=O)/C=C1\CN(C(=O)OCc2ccccc2)[C@@H]2C(=O)N(S(=O)(=O)[O-])[C@H]12.[Na+] property=pIC50 endpoint_result=5.99
compound=O=C(OCc1ccccc1)N1CC[C@@H]2[C@H]1C(=O)N2S(=O)(=O)[O-].[Na+] property=pIC50 endpoint_result=6.70
compound=O=C(NC1CCNCC1)N1CC[C@@H]2[C@H]1C(=O)N2S(=O)(=O)[O-].[Na+] property=pIC50 endpoint_result=5.41
compound="NC(C(=O)N1CC[C@@H]2[C@H]1C(=O)N2S(=O)(=O)[O-])c1ccc(O)cc1.[Na+] (some centres not stated)" property=pIC50 endpoint_result=7.05

Now examine the next entry.
Documented pIC50 of O=C(Nc1ccc(O)cc1)N1CC[C@@H]2[C@H]1C(=O)N2S(=O)(=O)[O-].[Na+] : 6.81
